Assay Overview: The drug is tested on Bacteroides ovatus strain: ATCC8483 for biotransformation. The drug concentrations were measured before and after a 12-h incubation by liquid-chromatography-coupled mass spectrometry (LC–MS)
Test Conditions: 2 µM
Parameter: Bacterial Biotransformation

Study these solved cases before continuing.
> print(dat)
                                   compound              result.value
1  COc1ccccc1OCCNCC(O)COc1cccc2[nH]c3ccccc3c12 (stereo not given)      Compound metabolized
2  CCOC(=O)C1=C[C@]2(CC)CCCN3CCc4c(n1c1ccccc41)[C@@H]32  Compound NOT metabolized
3  CN1CCOC(c2ccccc2)c2ccccc2C1 (stereo not given)  Compound NOT metabolized
4  CCc1cccc2c3c([nH]c12)C(CC)(CC(=O)O)OCC3 (stereo not given)  Compound NOT metabolized
5         CNCC[C@H](Oc1cccc2ccccc12)c1cccs1      Compound metabolized

Can you give me Bacterial Biotransformation for all of these, one by one?
1. COC1=C(OC)C(=O)C(CCCCCCCCCCO)=C(C)C1=O
2. CCN(CC)C(=O)C1(c2ccccc2)CC1CN (stereo not given)
3. OCCN1CCN(CCCN2c3ccccc3Sc3ccc(C(F)(F)F)cc32)CC1
4. CNNCc1ccc(C(=O)NC(C)C)cc1
5. C#C[C@]1(O)CC[C@H]2[C@@H]3CCC4=Cc5oncc5C[C@]4(C)[C@H]3CC[C@@]21C

Result:
Compound NOT metabolized
Compound NOT metabolized
Compound NOT metabolized
Compound NOT metabolized
Compound metabolized

Measured values drawn from ChEMBL document CHEMBL5303573 for this set.
